Assay: Selectivity index, ratio of IC50 for photocytotoxicity against human HaCaT cells to IC50 for photocytotoxicity against human HT-29 cells with high expression of alphaVbeta3 integrin
Format: toxicity, cell-based
Settings: read-out: Ratio IC50
Experimental Readout: selectivity ratio
Write the number on its own, no unit after it.

Fill blank: measured selectivity ratio of the molecule N=C(N)NCCC[C@@H]1NC(=O)[C@H](Cc2cn(CCOCCOCCO[Si]3(OCCOCCOCCn4cc(C[C@@H]5NC(=O)[C@@H](Cc6ccccc6)NC(=O)[C@H](CC(=O)O)NC(=O)CNC(=O)[C@H](CCCNC(=N)N)NC5=O)nn4)n4c5c6ccccc6c4/N=C4N=C(/N=c6/c7ccccc7/c(n63)=N/C3=NC(=N\5)/c5ccccc53)c3ccccc3\4)nn2)NC(=O)[C@@H](Cc2ccccc2)NC(=O)[C@H](CC(=O)O)NC(=O)CNC1=O (stereo partly specified) is ____.
2

====

Test: Aggregation behavior of compound in RPMI 1640 medium with 0.05% cremophor EL at 3 uM by UV-vis absorption spectra analysis
Type: physicochemical
Experimental Readout: Activity

INSERT INTO results (compound, value_measured) VALUES
  ('N=C(N)NCCC[C@@H]1NC(=O)[C@H](Cc2cn(CCOCCOCCO[Si]3(OCCOCCOCCn4cc(C[C@@H]5NC(=O)[C@@H](Cc6ccccc6)NC(=O)[C@H](CC(=O)O)NC(=O)CNC(=O)[C@H](CCCNC(=N)N)NC5=O)nn4)n4c5c6ccccc6c4/N=C4N=C(/N=c6/c7ccccc7/c(n63)=N/C3=NC(=N\5)/c5ccccc53)c3ccccc3\4)nn2)NC(=O)[C@@H](Cc2ccccc2)NC(=O)[C@H](CC(=O)O)NC(=O)CNC1=O (some centres not stated)', 'Not Active'),
  ('N=C(N)NCCC[C@@H]1NC(=O)[C@H](Cc2cn(CCOCCOCCOCCO[Si]3(OCCOCCOCCOCCn4cc(C[C@@H]5NC(=O)[C@@H](Cc6ccccc6)NC(=O)[C@H](CC(=O)O)NC(=O)CNC(=O)[C@H](CCCNC(=N)N)NC5=O)nn4)n4c5c6ccccc6c4/N=C4N=C(/N=c6/c7ccccc7/c(n63)=N/C3=NC(=N\5)/c5ccccc53)c3ccccc3\4)nn2)NC(=O)[C@@H](Cc2ccccc2)NC(=O)[C@H](CC(=O)O)NC(=O)CNC1=O (some centres not stated)', 'Not Active');
